# cond: buffer; pH 7.4; 200.0 µM
Record form. Attribute: solubility kinetic. Fill in for each entry.
Report the value in µg/mL with no unit label.

For reference, reported solubility kinetic for `O=C(Cn1cc(C(F)(F)F)ccc1=O)Nc1ccc2c(c1)OCCO2` stands at 25.2

For reference, reported solubility kinetic for CC(CCc1ccccc1)NC(=O)c1ccccc1F (stereo not drawn) stands at 34.4

For reference, reported solubility kinetic for `Oc1ccccc1C(=S)N1CCN(c2cccc(Cl)c2)CC1` stands at 20

For reference, reported solubility kinetic for `CNC(=S)N(Cc1ccccc1)Cc1cccnc1` stands at 39

For reference, reported solubility kinetic for `C=CCc1cccc(CNc2nc3ccccc3n2C)c1O` stands at 0.3

For reference, reported solubility kinetic for `COc1ccccc1/C=C1/C(=O)ON=C1C` stands at 31.3

For reference, reported solubility kinetic for `Cc1cc(NC(=O)Cn2cnc3sccc3c2=O)no1` stands at 7.8

For reference, reported solubility kinetic for N#Cc1ccccc1COc1cccc2c1CCCC2O (stereo not drawn) stands at 2.1

For reference, reported solubility kinetic for `CCC(=O)Nc1cccc(-c2nc3ccc(C)cc3o2)c1` stands at 1.6

For reference, reported solubility kinetic for `Cc1cc2cc(C#N)c(N3CCOCC3)nc2cc1Cl` stands at 0.5
